src = patent US9656962B2

Please respond with reported EC50 for every item in the list.
Biological target: κ-opioid receptor (Homo sapiens (Human), UniProt P41145)
Experiment: κ-opioid receptor [35S]GTPγS functional assay, U-2 OS cells (Table 5)
Format: biochemical
Conditions: κ GTP
Description: κ-Opioid Receptor Functional Assay Procedures: Functional [^35S]GTPγS binding assays were conducted as follows. κ opioid receptor membrane solution was prepared by sequentially adding final concentrations of 0.026 μg/μl κ membrane protein (in-house), 10 μg/mL saponin, 3 μM GDP and 0.20 nM [^35S]GTPγS to binding buffer (100 mM NaCl, 10 mM MgCl2, 20 mM HEPES, pH 7.4) on ice. […]
Answers are plain numbers, in nM.

Reference set, count: 8
INSERT INTO results (compound, property_label, readout_unit, readout_number) VALUES
  ('O=C(NCc1ccc(F)cc1)[C@@H]1C[C@]23CCN(CC4CC4)[C@H](Cc4ccc(O)cc42)[C@]3(O)C1 [Compound 48]', 'EC50', 'nM', 1.46),
  ('COC(=O)[C@@H]1C[C@]23CCN(CC4CC4)[C@H](Cc4ccc(O)cc42)[C@]3(O)C1 [Compound 12]', 'EC50', 'nM', 1.7),
  ('N=C(N)NCCNC(=O)[C@@H]1C[C@]23CCN(CC4CC4)[C@H](Cc4ccc(O)cc42)[C@]3(O)C1 [Compound 6]', 'EC50', 'nM', 0.87),
  ('O=C(NCc1ccc(O)cc1)[C@@H]1C[C@]23CCN(CC4CC4)[C@H](Cc4ccc(O)cc42)[C@]3(O)C1 [Compound 39]', 'EC50', 'nM', 1.85),
  ('O=C(NCc1ccc(Cl)c(Cl)c1)[C@@H]1C[C@]23CCN(CC4CC4)[C@H](Cc4ccc(O)cc42)[C@]3(O)C1 [Compound 46]', 'EC50', 'nM', 0.11),
  ('CC(C)CNC(=O)[C@H]1C[C@]23CCN(CC4CC4)[C@H](Cc4ccc(O)cc42)[C@]3(O)C1 [Compound 36]', 'EC50', 'nM', 0.27),
  ('O=C(NCc1ccc(O)cc1)[C@H]1C[C@]23CCN(CC4CC4)[C@H](Cc4ccc(O)cc42)[C@]3(O)C1 [Compound 40]', 'EC50', 'nM', 0.73),
  ('O=C(NCc1ccc(Cl)c(Cl)c1)[C@H]1C[C@]23CCN(CC4CC4)[C@H](Cc4ccc(O)cc42)[C@]3(O)C1 [Compound 47]', 'EC50', 'nM', 0.015);

# batch: return EC50 for each of the 2 compounds below
1. NC(=O)[C@@H]1C[C@]23CCN(CC(F)(F)F)[C@H](Cc4ccc(O)cc42)[C@]3(O)C1 [Compound 75]
2. O=C([C@@H]1C[C@]23CCN(CC4CC4)[C@H](Cc4ccc(O)cc42)[C@]3(O)C1)N1CCCCC1 [Compound 56]

Ans.
1: 1260; 2: 20.8
